# Test system: PCNA
# TEST NAME: Western Blot analysis of PCNA in ileal mucosa
# Assay type: in vivo, rat
# EXPERIMENTAL SETUP: OVX rats, s.c., 3 weeks; E2 4 μg, GEN 10 mg, ALPHA 10 μg, BETA I 100 μg kg-1 b.wt d-1; pooled ileal tissue
MEASURED QUANTITY: PCNA expression of intestinal mucosa cells, Western Blot densitometric evaluation

O=c1c(-c2ccc(O)cc2)coc2cc(O)cc(O)c12 [GEN, 4′,5,7-trihydroxyisoflavone] ... reduced
C=C[C@@]12CCc3cc(O)ccc3[C@H]1CC[C@@]1(C)[C@H]2CC[C@@H]1O ... reduced
